The measured values listed here are drawn from patent EP4786483A1.

Recorded measurements of IC50, one per entry
# Tested on: human breast cancer cells KPL-4
# Assay procedure: Cytotoxicity test for compounds (CellTiter-Glo cell proliferation inhibition)
# Assay type: cell-based
# Applied conditions: Homo sapiens, KPL4, 72 h, read-out: KPL-4/IC50 (nM)
Property label: IC50

C=C(C)C(Cc1cccc(N)c1)OC(=O)[C@H](C)[C@@H](OC)[C@@H]1CCCN1C(=O)C[C@@H](OC)[C@H]([C@@H](C)CC)N(C)C(=O)[C@@H](NC(=O)[C@H](C(C)C)N(C)C)C(C)C (stereo partly shown) [Example 31]
< 0.0256 nM
CC[C@H](C)[C@@H]([C@@H](CC(=O)N1CCC[C@H]1[C@H](OC)[C@@H](C)C(=O)OCCc1cccc(N)c1)OC)N(C)C(=O)[C@@H](NC(=O)[C@H](C(C)C)N(C)C)C(C)C [Example 13]
0.18 nM
CC[C@H](C)[C@@H]([C@@H](CC(=O)N1CCC[C@H]1[C@H](OC)[C@@H](C)C(=O)OC1(Cc2cccc(N)c2)CC1)OC)N(C)C(=O)[C@@H](NC(=O)[C@H](C(C)C)N(C)C)C(C)C [Example 32]
< 0.0256 nM
C#CC[C@H](Cc1cccc(N)c1)OC(=O)[C@H](C)[C@@H](OC)[C@@H]1CCCN1C(=O)C[C@@H](OC)[C@H]([C@@H](C)CC)N(C)C(=O)[C@@H](NC(=O)[C@H](C(C)C)N(C)C)C(C)C [Example 17]
< 0.0256 nM
CC[C@H](C)[C@@H]([C@@H](CC(=O)N1CCC[C@H]1[C@H](OC)[C@@H](C)C(=O)O[C@H](CF)Cc1cccc(N)c1)OC)N(C)C(=O)[C@@H](NC(=O)[C@H](C(C)C)N(C)C)C(C)C [Example 24]
< 0.0256 nM
C=CC[C@H](Cc1cccc(N)c1)OC(=O)[C@H](C)[C@@H](OC)[C@@H]1CCCN1C(=O)C[C@@H](OC)[C@H]([C@@H](C)CC)N(C)C(=O)[C@@H](NC(=O)[C@H](C(C)C)N(C)C)C(C)C [Example 18]
< 0.0256 nM
CC[C@H](C)[C@@H]([C@@H](CC(=O)N1CCC[C@H]1[C@H](OC)[C@@H](C)C(=O)O[C@H](CN=[N+]=[N-])Cc1cccc(N)c1)OC)N(C)C(=O)[C@@H](NC(=O)[C@H](C(C)C)N(C)C)C(C)C [Example 15]
2 nM
